target: T1, recombinant biotinylated human PAR2 extracellular domain (residues 1-75), N-terminal AviTag, C-terminal Flag … (human, UniProt P55085 26-75, biotin on the AviTag (enzymatic biotinylation)); assay: HTRF competition with Par0067 IgG, pH 6.0, scFv
T1 construct: also called Bio-human-PAR2 ECD; human PAR2 ECD; not shown: N-terminal AviTag (Avidity LLC); C-terminal Flag and poly Histidine tags
T1 sequence (P55085 26-75): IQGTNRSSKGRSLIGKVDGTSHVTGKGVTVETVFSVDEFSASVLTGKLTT
result.type: pIC50
Would you please state pIC50, meaning minus log10 of the concentration in mol/L, as a bare number?

May I ask what pIC50 has been recorded for PaB670068 scFv (scFv, V domains shown, purified scFv; also called ZZ1KXE-B01) VH: EVQLLESGGGLVQPGGSLRLSCAASGFTFSSYAMNWVRQAPGKGLEWVSTISYSGSLISYADSVKGRFTISRDNSKNTLYLQMNSLRAEDTAVYYCARINNDPMDVWGQGTLVTVSS VL: SIELTQPPSVSVSPGQTASITCSGDNLGKKYVQWYQQKPGQSPVLVIYDDSNRPSGIPERFSGSNSGNTATLTISGTQAMDEADYYCQTWDGHHTHGEHHVFGGGTKLTVL ? 6.35

Try this binder too: PaB670075 scFv (scFv, V domains shown, purified scFv; also called ZZ1NHH-A05) VH: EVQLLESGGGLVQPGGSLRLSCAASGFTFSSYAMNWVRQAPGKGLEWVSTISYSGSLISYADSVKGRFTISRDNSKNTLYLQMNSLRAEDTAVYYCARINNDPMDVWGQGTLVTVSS VL: SIELTQPPSVSVSPGQTASITCSGDNLGKKYVQWYQQKPGQSPVLVIYDDSNRPSGIPERFSGSNSGNTATLTISGTQAMDEADYYCQHWDGNHHHGETNHFGGGTKLTVL 6.22

Try this binder too: PaB670103 scFv (scFv, V domains shown, purified scFv; also called ZZ1RCX-C09) VH: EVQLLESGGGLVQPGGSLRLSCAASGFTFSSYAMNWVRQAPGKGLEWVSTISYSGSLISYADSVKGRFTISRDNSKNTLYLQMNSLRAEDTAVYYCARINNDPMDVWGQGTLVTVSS VL: SIELTQPPSVSVSPGQTASITCSGDNLGKKYVQWYQQKPGQSPVLVIYDDSNRPSGIPERFSGSNSGNTATLTISGTQAMDEADYYCHTWDGHHTTGETNHFGGGTKLTVL 6.69

Try this binder too: PaB670071 scFv (scFv, V domains shown, purified scFv; also called ZZ1L3F-A02) VH: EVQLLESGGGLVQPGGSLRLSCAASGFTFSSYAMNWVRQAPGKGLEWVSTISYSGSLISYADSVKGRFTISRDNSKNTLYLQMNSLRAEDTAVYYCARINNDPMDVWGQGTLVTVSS VL: SIELTQPPSVSVSPGQTASITCSGDNLGKKYVQWYQQKPGQSPVLVIYDDSNRPSGIPERFSGSNSGNTATLTISGTQAMDEADYYCHTWHHHHHTGEHNHFGGGTKLTVL 6.37

Try this binder too: PaB670083 scFv (scFv, V domains shown, purified scFv; also called ZZ1OZB-H05) VH: EVQLLESGGGLVQPGGSLRLSCAASGFTFSSYAMNWVRQAPGKGLEWVSTIHHSGHLHSHADHVKGRFTISRDNSKNTLYLQMNSLRAEDTAVYYCARINNDPMDVWGQGTLVTVSS VL: SIELTQPPSVSVSPGQTASITCSGDNLGKKYVQWYQQKPGQSPVLVIYDDSNRPSGIPERFSGSNSGNTATLTISGTQAMDEADYYCQTWDGNPTTGETNVFGGGTKLTVL 6.82

Try this binder too: PaB670104 scFv (scFv, V domains shown, purified scFv) VH: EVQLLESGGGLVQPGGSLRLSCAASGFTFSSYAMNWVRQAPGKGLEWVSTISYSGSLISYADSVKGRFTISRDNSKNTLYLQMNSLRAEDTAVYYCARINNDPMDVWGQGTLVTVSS VL: SIELTQPPSVSVSPGQTASITCSGDNLGKKYVQWYQQKPGQSPVLVIYDDSNRPSGIPERFSGSNSGNTATLTISGTQAMDEADYYCQHWDGHHHTGETNVFGGGTKLTVL 6.69

Try this binder too: PaB670077 scFv (scFv, V domains shown, purified scFv; also called ZZ1OZJ-C11) VH: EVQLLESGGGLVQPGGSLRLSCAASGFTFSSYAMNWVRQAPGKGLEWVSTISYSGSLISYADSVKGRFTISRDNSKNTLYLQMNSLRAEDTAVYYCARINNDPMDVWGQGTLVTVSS VL: SIELTQPPSVSVSPGQTASITCSGDNLGKKYVQWYQQKPGQSPVLVIYDDSNRPSGIPERFSGSNSGNTATLTISGTQAMDEADYYCHHWHGHHTTGETNHFGGGTKLTVL 6.21

Try this binder too: PaB670088 scFv (scFv, V domains shown, purified scFv; also called ZZ1ODR-B11) VH: EVQLLESGGGLVQPGGSLRLSCAASGFTFSSYAMNWVRQAPGKGLEWVSTISYSGHLIHYADHHHGRFTISRDNSKNTLYLQMNSLRAEDTAVYYCARINNDPMDVWGQGTLVTVSS VL: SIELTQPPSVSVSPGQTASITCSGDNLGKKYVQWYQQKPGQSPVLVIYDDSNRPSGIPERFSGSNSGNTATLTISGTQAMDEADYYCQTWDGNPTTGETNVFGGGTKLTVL 6.94

Try this binder too: PaB670091 scFv (scFv, V domains shown, purified scFv; also called ZZ1ODR-G02) VH: EVQLLESGGGLVQPGGSLRLSCAASGFTFSSYAMNWVRQAPGKGLEWVSTISHSGHLIHHHHSVKGRFTISRDNSKNTLYLQMNSLRAEDTAVYYCARINNDPMDVWGQGTLVTVSS VL: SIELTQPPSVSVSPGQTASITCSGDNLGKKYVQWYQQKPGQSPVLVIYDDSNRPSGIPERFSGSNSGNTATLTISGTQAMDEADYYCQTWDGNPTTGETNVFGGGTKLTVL 7.00

Try this binder too: PaB670094 scFv (scFv, V domains shown, purified scFv; also called ZZ1ODS-B08) VH: EVQLLESGGGLVQPGGSLRLSCAASGFTFSSYAMNWVRQAPGKGLEWVSTISYHGHHISHADHHKGRFTISRDNSKNTLYLQMNSLRAEDTAVYYCARINNDPMDVWGQGTLVTVSS VL: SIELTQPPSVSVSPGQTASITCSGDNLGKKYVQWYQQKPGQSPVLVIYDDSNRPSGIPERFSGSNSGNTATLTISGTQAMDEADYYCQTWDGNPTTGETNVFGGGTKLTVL 6.63
